assay: Selectivity index, ratio of IC50 for human BEAS-2B cells to IC50 for human A549 cells; type: toxicity; conditions: BEAS-2B cells versus A549 cells, read-out: Ratio IC50
Each entry below carries its reported selectivity ratio.

**Q:** # get_value(readout='selectivity ratio', item= `O=C(/C=C/c1ccccc1)Nc1ccc(/C=C/c2cc(O)cc(O)c2)cc1` )
**A:** > 9.2

**Q:** # get_value(readout='selectivity ratio', item= `O=C(CCc1ccccc1)Nc1ccc(-c2ccc3cc(O)ccc3c2)cc1` )
**A:** > 52.1

Alright, here's another compound for you.
**Q:** # get_value(readout='selectivity ratio', item= `O=C(/C=C/c1ccccc1)Nc1ccc(-c2ccc3cc(O)ccc3c2)cc1` )
**A:** > 28.1

---

molecular target: DNA topoisomerase 2-alpha (Homo sapiens, UniProt P11388); test: Inhibition of human topoisomerase 2-alpha assessed as reduction in relaxation of pBR322 DNA at 100 uM measured after 30 mins by agarose gel electrophoresis method relative to control
Sequence (P11388 whole entry): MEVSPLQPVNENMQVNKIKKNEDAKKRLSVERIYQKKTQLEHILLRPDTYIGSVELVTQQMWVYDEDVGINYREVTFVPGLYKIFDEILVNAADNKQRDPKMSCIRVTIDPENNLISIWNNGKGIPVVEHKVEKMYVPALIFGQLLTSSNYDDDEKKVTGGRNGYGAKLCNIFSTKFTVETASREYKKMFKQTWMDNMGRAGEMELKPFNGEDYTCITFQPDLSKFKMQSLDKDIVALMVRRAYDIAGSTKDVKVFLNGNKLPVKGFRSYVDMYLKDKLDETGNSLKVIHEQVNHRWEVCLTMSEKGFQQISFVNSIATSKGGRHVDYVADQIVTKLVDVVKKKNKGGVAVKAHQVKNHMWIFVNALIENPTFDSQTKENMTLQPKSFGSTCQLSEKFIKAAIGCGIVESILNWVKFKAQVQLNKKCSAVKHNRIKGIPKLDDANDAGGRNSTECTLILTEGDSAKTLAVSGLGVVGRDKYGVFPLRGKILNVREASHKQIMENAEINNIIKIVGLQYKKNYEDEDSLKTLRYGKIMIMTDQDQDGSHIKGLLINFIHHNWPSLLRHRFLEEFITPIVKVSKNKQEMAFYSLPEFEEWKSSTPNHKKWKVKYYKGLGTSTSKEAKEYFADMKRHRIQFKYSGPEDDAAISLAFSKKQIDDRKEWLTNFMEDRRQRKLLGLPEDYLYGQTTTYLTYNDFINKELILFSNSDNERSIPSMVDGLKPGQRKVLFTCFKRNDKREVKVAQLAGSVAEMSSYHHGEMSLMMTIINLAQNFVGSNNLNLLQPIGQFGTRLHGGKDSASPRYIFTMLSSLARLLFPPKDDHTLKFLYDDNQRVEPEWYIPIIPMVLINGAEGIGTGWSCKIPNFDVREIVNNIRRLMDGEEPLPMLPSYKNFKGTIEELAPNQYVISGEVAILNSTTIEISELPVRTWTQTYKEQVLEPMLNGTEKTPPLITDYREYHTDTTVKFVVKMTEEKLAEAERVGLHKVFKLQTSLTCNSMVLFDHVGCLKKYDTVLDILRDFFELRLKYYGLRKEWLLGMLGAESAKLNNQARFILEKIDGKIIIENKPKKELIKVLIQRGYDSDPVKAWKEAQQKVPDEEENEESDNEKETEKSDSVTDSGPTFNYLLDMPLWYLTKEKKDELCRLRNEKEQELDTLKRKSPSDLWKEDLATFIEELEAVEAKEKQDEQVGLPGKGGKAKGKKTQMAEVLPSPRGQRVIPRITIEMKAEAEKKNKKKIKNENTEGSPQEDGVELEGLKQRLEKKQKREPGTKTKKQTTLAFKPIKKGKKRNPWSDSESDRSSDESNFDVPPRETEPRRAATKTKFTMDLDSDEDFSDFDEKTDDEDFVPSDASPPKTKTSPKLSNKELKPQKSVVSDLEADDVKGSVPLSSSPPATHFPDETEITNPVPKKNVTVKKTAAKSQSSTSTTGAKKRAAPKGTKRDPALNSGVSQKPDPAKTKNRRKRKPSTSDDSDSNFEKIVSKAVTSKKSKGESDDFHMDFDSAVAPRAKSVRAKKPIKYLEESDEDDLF
Experimental Endpoint: inhibition (%)
API: value field is a number in %; no unit string.

Recorded inhibition, per entry:
**Q:** # get_value(readout='inhibition', item= `O=C(CCc1ccccc1)Nc1ccc(-c2nc3ccc(O)cc3s2)cc1` )
**A:** 86.8

**Q:** # get_value(readout='inhibition', item= `NC(=O)/C=C/c1ccc(/C=C/c2cc(O)cc(O)c2)cc1` )
**A:** 29.8

**Q:** # get_value(readout='inhibition', item= `O=C(CCc1ccccc1)Nc1ccc(/C=C/c2cc(O)cc(O)c2)cc1` )
**A:** 62.5

**Q:** # get_value(readout='inhibition', item= `Oc1ccc(-c2ccc(/C=C/c3cc(O)cc(O)c3)cc2)cc1` )
**A:** 83.8

**Q:** # get_value(readout='inhibition', item= `O=C(CCc1ccccc1)Nc1ccc(-c2ccc3cc(O)ccc3c2)cc1` )
**A:** 82.1

Alright, here's another molecule for you.
**Q:** # get_value(readout='inhibition', item= `Oc1ccc(-c2ccc(O)c(/C=C/c3cc(O)cc(O)c3)c2)cc1` )
**A:** 86.3

---

experiment: Antiproliferative activity against human CCL-226 cells incubated for 72 hrs by CCK8 assay; assay type: toxicity, cell-based
Experimental Endpoint: IC50 at 72 h

**Q:** # get_value(readout='IC50 at 72 h', item= COc1cc([C@@H]2c3cc4c(cc3[C@@H](O[C@@H]3O[C@@H]5CO[C@@H](C)O[C@H]5[C@H](O)[C@H]3O)[C@H]3COC(=O)[C@H]23)OCO4)cc(OC)c1O [ETOPOSIDE] )
**A:** 20.8 µM

Further cases:
**Q:** # get_value(readout='IC50 at 72 h', item= `O=C(/C=C/c1ccccc1)Nc1ccc(-c2ccc3cc(O)ccc3c2)cc1` )
**A:** > 50 µM

**Q:** # get_value(readout='IC50 at 72 h', item= `O=C(CCc1ccccc1)Nc1ccc(-c2ccc3cc(O)ccc3c2)cc1` )
**A:** > 50 µM

**Q:** # get_value(readout='IC50 at 72 h', item= `O=C(/C=C/c1ccccc1)Nc1ccc(/C=C/c2cc(O)cc(O)c2)cc1` )
**A:** > 50 µM

---

Each entry below carries its reported selectivity ratio.
test: Selectivity index, ratio of IC50 for human BEAS-2B cells to IC50 for human MDA-MB-231 cells; type: toxicity; details: BEAS-2B cells versus MDA-MB-231 cells, read-out: Ratio IC50

**Q:** # get_value(readout='selectivity ratio', item= `O=C(CCc1ccccc1)Nc1ccc(-c2ccc3cc(O)ccc3c2)cc1` )
**A:** > 52.1

**Q:** # get_value(readout='selectivity ratio', item= `O=C(/C=C/c1ccccc1)Nc1ccc(/C=C/c2cc(O)cc(O)c2)cc1` )
**A:** > 9.2

Alright, here's another compound for you.
**Q:** # get_value(readout='selectivity ratio', item= `O=C(/C=C/c1ccccc1)Nc1ccc(-c2ccc3cc(O)ccc3c2)cc1` )
**A:** > 28.1
